- Test system: E. coli TESEC Mtb Alr
- assay-protocol: growth (OD600 after 10 h); higher = more growth (less inhibition)
- test-conditions: arabinose 1000000 nM; compound 0.1 mM; raw OD600 reference: median of DMSO wells 0.193, cell-free background 0.041
Structures can show the parent of a compound that is named as a salt.
property-measured: growth
Write no unit; give the number alone.

Observe how each entry below is paired with its result.
molecule: COP(=O)(OC)C(O)C(Cl)(Cl)Cl (centres undefined)
observed-measurement: 0.181

molecule: Clc1ccc(C(OCCN2CCCCC2)c2ccccc2)cc1 (centres undefined) [Cloperastine hydrochloride]
observed-measurement: 0.0487

molecule: CN1C[C@H](CNC(=O)OCc2ccccc2)C[C@@H]2c3cccc4c3c(cn4C)C[C@H]21
observed-measurement: 0.0401

Pending molecule:
Query string: What does the data say about its growth? Entry: NC(=O)C[S+]([O-])C(c1ccccc1)c1ccccc1 (centres undefined)
Result string: 0.192

---

- Test system: E. coli TESEC Alr+ wild-type control
- assay-protocol: growth (OD600 after 10 h); higher = more growth (less inhibition)
- test-conditions: compound 0.1 mM; raw OD600 reference: median of DMSO wells 0.241, cell-free background 0.041
Where a name gives a salt, the structure may show the parent alone.
Listed here are compounds together with their documented growth.

Observe how each entry below is paired with its result.
compound: Clc1ccc(C(OCCN2CCCCC2)c2ccccc2)cc1 (stereo not drawn) [Cloperastine hydrochloride]
growth: 0.186
--
compound: O=C1CC[C@@]2(O)[C@H]3Cc4ccc(O)c5c4[C@@]2(CCN3CC2CC2)[C@H]1O5 [Naltrexone hydrochloride dihydrate]
growth: 0.242
--
compound: COc1cc2c(cc1OC)C(C)NCC2 (stereo not drawn)
growth: 0.236

Query string: What does the data say about its growth? Entry: C[N+]1([O-])[C@@H]2C[C@@H](OC(=O)[C@H](CO)c3ccccc3)C[C@H]1[C@@H]1O[C@@H]12 (stereo partly drawn) [Scopolamin-N-oxide hydrobromide]
Result string: 0.262

Query string: What does the data say about its growth? Entry: CN(C)[C@@H]1C(=O)C(C(N)=O)=C(O)[C@@]2(O)C(=O)C3=C(O)c4c(O)cccc4[C@@](C)(O)[C@H]3C[C@@H]12 [Tetracycline hydrochloride]
Result string: 0.0422

Query string: What does the data say about its growth? Entry: CN[C@@H]1C[C@@H](c2ccc(Cl)c(Cl)c2)c2ccccc21 [Indatraline hydrochloride]
Result string: 0.0397

---

- Tested on: E. coli TESEC Mtb Alr
- assay-protocol: growth (OD600 after 10 h); higher = more growth (less inhibition)
- test-conditions: arabinose 100000 nM; compound 0.1 mM; raw OD600 reference: median of DMSO wells 0.201, cell-free background 0.041
Where a name gives a salt, the structure may show the parent alone.
Please use yes (1) whenever growth is not below 0.2, and no (0) whenever it is.

Worked examples follow.
molecule: CO[C@]12C[C@@H](COC(=O)c3cncc(Br)c3)CN(C)[C@@H]1Cc1cn(C)c3cccc2c13
class-assignment: yes (1)
--
molecule: NCCCNCCSP(=O)(O)O
class-assignment: yes (1)
--
molecule: S=C(NC1CCCCC1)N1CCC(c2cnc[nH]2)CC1 [Thioperamide maleate]
class-assignment: no (0)
--
molecule: CN1CCN(C(=O)OC2c3nccnc3C(=O)N2c2ccc(Cl)cn2)CC1 (configuration not stated)
class-assignment: no (0)
--
molecule: CCC1(c2cccc(O)c2)CCCCN(C)C1 (configuration not stated) [Meptazinol hydrochloride]
class-assignment: no (0)

Query string: Evaluate C[C@]12COC(=O)C[C@@H]1CC[C@@H]1[C@@H]2CC[C@@]2(C)[C@H]1CC[C@]2(C)O : growth at minimum 0.2?
Result string: no (0)

Query string: Evaluate C=C1CC[C@@]2(O)[C@H]3Cc4ccc(O)c5c4[C@@]2(CCN3CC2CC2)[C@H]1O5 [Nalmefene hydrochloride] : growth at minimum 0.2?
Result string: no (0)

Query string: Evaluate NC(=O)CN1CCCC1=O : growth at minimum 0.2?
Result string: yes (1)

Query string: Evaluate CC(=O)O[C@H]1CC[C@@]2(C)C(=CC[C@@H]3[C@@H]2CC[C@]2(C)C(=O)CC[C@@H]32)C1 [Dehydroisoandosterone 3-acetate] : growth at minimum 0.2?
Result string: no (0)

Query string: Evaluate C[C@]12CCC(=O)C(O)=C1CC[C@@H]1[C@@H]2CC[C@]2(C)C(=O)CC[C@@H]12 : growth at minimum 0.2?
Result string: no (0)
